target: TAAR1 (Homo sapiens, UniProt Q96RJ0); assay: BRET cAMP biosensor (EPAC) assay of TAAR1 agonistic activity in transiently transfected HEK-293 cells; settings: TAAR1 agonistic activity, concentration-response
Sequence (Q96RJ0 whole entry): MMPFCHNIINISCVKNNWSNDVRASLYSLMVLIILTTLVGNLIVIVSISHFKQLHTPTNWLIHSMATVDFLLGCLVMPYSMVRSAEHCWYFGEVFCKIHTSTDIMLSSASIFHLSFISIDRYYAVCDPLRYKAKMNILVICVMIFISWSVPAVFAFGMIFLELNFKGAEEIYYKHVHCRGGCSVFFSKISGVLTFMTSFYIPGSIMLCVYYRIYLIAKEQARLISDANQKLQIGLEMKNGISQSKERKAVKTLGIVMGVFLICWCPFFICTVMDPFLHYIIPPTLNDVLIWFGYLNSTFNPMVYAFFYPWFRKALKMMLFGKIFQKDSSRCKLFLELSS
Reported Property: pEC50
The read-out pEC50 is expressed as -log10 of concentration in moles per litre.

Mol Smiles	Reported Property	Observed Measurement
Cc1cccc(C(=O)N2CCC(CCN)CC2)c1	pEC50	6.20
Cc1cc(NC(=O)N2CCC(CCN)CC2)ccc1F	pEC50	6.84

Shifting focus to the compound that follows.
// recorded pEC50 for `NCCC1CCN(C(=O)c2ccccc2)CC1` : 6.20

----------
molecular target: TAAR1 (Homo sapiens, UniProt Q96RJ0); construct: expressed in transfected cells; host or cells: HEK-293 cells, transient transfection; experiment: BRET cAMP biosensor (EPAC) assay of TAAR1 agonistic activity in transiently transfected HEK-293 cells; type: cell-based; details: agonistic activity in words
Reported Property: TAAR1 Activity (active / inactive, in words)

Molecule	Observed Measurement
Cc1cccc(NC(=O)N2CCC(CCN)CC2)c1.Cl [Compound 9]	Active
Cl.NCCC1CCN(C(=O)Nc2cc(F)cc(F)c2)CC1 [Compound 14]	Inactive
Cl.NCCC1CCN(C(=O)Nc2ccc(F)cc2F)CC1 [Compound 13]	Inactive
Cc1ccc(NC(=O)N2CCC(CCN)CC2)cc1.Cl [Compound 7]	Inactive
Cc1ccccc1NC(=O)N1CCC(CCN)CC1.Cl [Compound 10]	Inactive

Here is the next item to consider.
Record Cl.NCCC1CCN(C(=O)Nc2cc(F)ccc2F)CC1 [Compound 12] ; system TAAR1 (Homo sapiens, UniProt Q96RJ0); TAAR1 Activity (active / inactive, in words) = Active
